Just for reference, patent US20130165464A1 is where these values come from.

Each item that follows carries a reported IC50.
Target Or System: VPS34 (Homo sapiens)
Construct: GST (N); host or cells: SF9 insect cells (baculovirus)
Protocol Summary: Human VPS34 enzyme assay (Adapta TR-FRET)
Format: biochemical

INSERT INTO assay_data (smiles_repr, measurement) VALUES
  ('COC(=O)Nc1cc(-n2cc(-c3nc[nH]n3)c(-c3ccccc3Cl)n2)ccn1', '< 50 nM'),
  ('COc1ccc(-c2nn(-c3cc(NC(C)=O)ncc3C)cc2-c2nc[nH]n2)c(Cl)c1', '< 50 nM'),
  ('CCC(=O)Nc1cc(-n2cc(C(N)=O)c(-c3ccccc3Cl)c2)c(C)cn1', '< 50 nM'),
  ('O=C(O)c1cn(-c2ccnc(NCCc3ccccc3)n2)nc1-c1ccccc1Cl', '1000 to 5000 nM'),
  ('CC(=O)Nc1cc(-n2cc(-c3ncc[nH]3)c(-c3ccccc3Cl)n2)ccn1', '< 50 nM'),
  ('CC(=O)Nc1cc(-n2cc(-c3nnc[nH]3)c(-c3ccc(Cl)cc3Cl)n2)c(C)cn1', '< 50 nM');

Now examine the next entry.
# IC50 lookup, item CC(=O)Nc1cc(-n2cc(-c3nc[nH]n3)c(-c3ccccc3Cl)c2)c(C)cn1 < 50 nM

###

Target Or System: VPS34 (Homo sapiens)
Construct: GST (N); host or cells: SF9 insect cells (baculovirus)
Protocol Summary: Human VPS34 enzyme assay (Adapta TR-FRET)
Assay type: biochemical
Measurement Parameters: 1 h; at a 1.11 μM concentration; read-out: VPS34 Percent Inhibition
Experimental: VPS34 (accession number GB:BCO33004) was cloned into pDEST20-Thombin as N-terminal GST tagged fusion proteins using the Gateway system (Invitrogen, catalog#11804-013). […] 100 nL compounds in DMSO are added to wells of a 384 well microtitre plate (Greiner 780076). […] The plates are then incubated for 30 minutes at room temperature with shaking and then read on a BMG PheraStar Plus reader. […]
Measure: inhibition at 1.11 µM (%)

Known inhibition at 1.11 µM results, listed for orientation:
INSERT INTO results (smiles_repr, measurement) VALUES
  ('COC(=O)Nc1cc(-n2cc(C(N)=O)c(-c3ccccc3Cl)c2)c(Cl)cn1', 85),
  ('CC(=O)Nc1cc(-n2cc(-c3ccccc3)c(-c3nnc[nH]3)c2)c(C)cn1', 81),
  ('CC(=O)Nc1cc(-n2cc(-c3nc[nH]n3)c(-c3ccccc3SC(F)(F)F)n2)c(C)cn1', 75);

A = CC(=O)Nc1cc(-n2cc(-c3nc[nH]n3)c(-c3cc(CN(C)C)ccc3Cl)c2)c(C)cn1
B = CC(=O)Nc1cc(-n2cc(C(N)=O)c(-c3ccccc3Cl)c2)c(C)cn1
Please tell me which of the two, A or B , has the higher reported inhibition at 1.11 µM value. When you have decided, please share the label of that item. B
(B: 78%, A: 23%)

###

Target Or System: VPS34 (Homo sapiens, UniProt Q8NEB9)
Construct: GST (N); host or cells: SF9 insect cells (baculovirus)
Sequence (Q8NEB9 whole entry): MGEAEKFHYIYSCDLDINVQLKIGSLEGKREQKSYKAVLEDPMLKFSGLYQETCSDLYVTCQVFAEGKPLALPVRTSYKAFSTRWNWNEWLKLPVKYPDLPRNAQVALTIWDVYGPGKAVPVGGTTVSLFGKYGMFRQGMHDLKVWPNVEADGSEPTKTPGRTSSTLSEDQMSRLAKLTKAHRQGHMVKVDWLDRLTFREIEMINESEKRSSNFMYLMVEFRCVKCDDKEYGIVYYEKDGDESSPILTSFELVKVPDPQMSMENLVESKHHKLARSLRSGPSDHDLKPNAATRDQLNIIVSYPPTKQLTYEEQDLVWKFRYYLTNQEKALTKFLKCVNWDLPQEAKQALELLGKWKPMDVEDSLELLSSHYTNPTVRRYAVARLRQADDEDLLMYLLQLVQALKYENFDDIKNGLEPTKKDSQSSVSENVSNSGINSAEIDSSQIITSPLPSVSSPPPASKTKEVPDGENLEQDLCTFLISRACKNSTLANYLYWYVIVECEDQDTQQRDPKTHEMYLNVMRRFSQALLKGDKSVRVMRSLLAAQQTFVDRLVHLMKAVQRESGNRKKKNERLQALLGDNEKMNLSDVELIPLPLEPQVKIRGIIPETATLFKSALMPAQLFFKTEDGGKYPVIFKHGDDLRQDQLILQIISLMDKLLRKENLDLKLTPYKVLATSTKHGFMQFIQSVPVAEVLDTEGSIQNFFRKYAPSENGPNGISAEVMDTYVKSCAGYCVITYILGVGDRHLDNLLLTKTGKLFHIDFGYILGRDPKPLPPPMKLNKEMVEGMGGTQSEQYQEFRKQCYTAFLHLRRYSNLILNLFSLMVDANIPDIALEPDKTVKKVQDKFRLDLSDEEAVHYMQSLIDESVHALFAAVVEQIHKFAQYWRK
Protocol Summary: Human VPS34 enzyme assay (Adapta TR-FRET)
Assay type: biochemical
Measurement Parameters: 1 h; at a 1.11 μM concentration; read-out: VPS34 Percent Inhibition
Measure: inhibition at 1.11 µM (%)

Some solved cases for reference:
INSERT INTO assay_data (smiles_repr, measurement) VALUES
  ('O=C(O)c1cn(-c2ccnc(NCCc3ccc(O)cc3)n2)nc1-c1ccccc1Cl', 44),
  ('CC(=O)Nc1cc(-n2cc(-c3nnc[nH]3)c(I)n2)c(C)cn1', 59),
  ('CC(=O)Nc1cc(-n2cc(-c3ccccc3Cl)c(-c3nnc[nH]3)n2)ccn1', 98),
  ('CC(=O)Nc1cc(-n2cc(-c3nc[nH]n3)c(-c3ccc(C(F)(F)F)cc3Cl)n2)c(C)cn1', 89);

1 = NC(=O)c1cn(-c2ccnc(NCCc3ccc(O)cc3)n2)nc1-c1ccccc1Cl
2 = CC(=O)Nc1cc(-n2cc(C(N)=O)c(-c3ccccc3S(C)(=O)=O)c2)ccn1
Param metric = inhibition at 1.11 µM; output whichever of 1 , 2 has the minimum value. Pick one and reply with its label. 1
(1: 27%, 2: 64%)

###

Target Or System: VPS34 (Homo sapiens)
Some compounds, each annotated with its measured IC50.

// known answers, use as guide
INSERT INTO measurements (compound, measurement) VALUES
  ('CCC(=O)Nc1cc(-n2cc(-c3nc[nH]n3)c(-c3ccccc3Cl)c2)c(C)cn1 [I-50]', '< 50 nM'),
  ('Cc1cnc(NC(=O)C2CC2)cc1-n1cc(C(N)=O)c(-c2ccccc2Cl)n1 [I-34]', '150 to 1000 nM'),
  ('CC(=O)Nc1cc(-n2cc(-c3nnc[nH]3)c(-c3ccccc3Cl)c2)ccn1 [I-22]', '< 50 nM');

Name the reported IC50 value associated with the compound NC(=O)c1cn(-c2ccnc(NCCc3ccc(O)cc3)n2)nc1-c1ccccc1Cl [I-43] 1000 to 5000 nM

# lookup: IC50 of CC(=O)Nc1cc(-n2cc(-c3nc[nH]n3)c(-c3ccccc3Cl)n2)c(F)cn1 [I-44] < 50 nM

Need IC50, item CC(=O)Nc1cc(-n2cc(-c3ccn[nH]3)c(-c3ccccc3Cl)n2)ccn1 [I-25] < 50 nM

Request the reported IC50 associated with CC(=O)Nc1cc(-n2cc(C(N)=O)c(-c3ccccc3Cl)c2)c(Cl)cn1 [I-37] 150 to 1000 nM

Item CC(=O)Nc1cc(-n2cc(-c3nc[nH]n3)c(-c3ccccc3SC(F)(F)F)n2)c(C)cn1 [I-59] has what recorded IC50? 150 to 1000 nM

###

Target Or System: VPS34 (Homo sapiens, UniProt Q8NEB9)
Construct: GST (N); host or cells: SF9 insect cells (baculovirus)
Protocol Summary: Human VPS34 enzyme assay (Adapta TR-FRET)
Assay type: biochemical
Measurement Parameters: 1 h; at a 1.11 μM concentration; read-out: VPS34 Percent Inhibition
Measure: inhibition at 1.11 µM

Take a look at these entries with their results.
INSERT INTO results (smiles_repr, measure, measurement) VALUES
  ('CCC(=O)Nc1cc(-n2cc(C(N)=O)c(-c3ccccc3Cl)c2)c(C)cn1', 'inhibition at 1.11 µM', '> 99%'),
  ('COCCOC(=O)Nc1cc(-n2cc(-c3nc[nH]n3)c(-c3ccccc3Cl)c2)c(C)cn1', 'inhibition at 1.11 µM', '> 99%'),
  ('CC(=O)Nc1cc(-n2cc(C(N)=O)c(-c3ccccc3Cl)n2)ccn1', 'inhibition at 1.11 µM', '> 99%'),
  ('O=C(O)c1cn(-c2ccnc(NCCc3ccccc3)n2)nc1-c1ccccc1Cl', 'inhibition at 1.11 µM', '14%'),
  ('Cc1cnc(NC(=O)C2CC2)cc1-n1cc(-c2nc[nH]n2)c(-c2ccccc2Cl)n1', 'inhibition at 1.11 µM', '> 99%'),
  ('CC(=O)Nc1cc(-n2cc(-c3ccccc3Cl)c(C(N)=O)n2)ccn1', 'inhibition at 1.11 µM', '29%'),
  ('COC(=O)Nc1cc(-n2cc(-c3nc[nH]n3)c(-c3ccccc3Cl)n2)ccn1', 'inhibition at 1.11 µM', '> 99%'),
  ('COc1ccccc1-c1nn(-c2cc(NC(C)=O)ncc2C)cc1-c1nc[nH]n1', 'inhibition at 1.11 µM', '56%'),
  ('Cc1cnc(NC(=O)C(C)C)cc1-n1cc(-c2nc[nH]n2)c(-c2ccccc2Cl)c1', 'inhibition at 1.11 µM', '78%'),
  ('CC(=O)Nc1cc(-n2cc(C(N)=O)c(-c3ccccc3Cl)c2)c(Cl)cn1', 'inhibition at 1.11 µM', '88%');

Looking for the measured inhibition at 1.11 µM of Cc1cnc(NC(=O)C2CC2)cc1-n1cc(-c2ncc[nH]2)c(-c2ccccc2Cl)n1 , can you help? > 99%

Any idea what inhibition at 1.11 µM was measured for CCC(=O)Nc1cc(-n2cc(-c3nc[nH]n3)c(-c3ccccc3Cl)c2)c(C)cn1 ? > 99%

Which inhibition at 1.11 µM reading was recorded for the compound Cc1cnc(NC(=O)C(C)C)cc1-n1cc(C(N)=O)c(-c2ccccc2Cl)c1 ? 42%

Recorded inhibition at 1.11 µM of COCCOC(=O)Nc1cc(-n2cc(C(N)=O)c(-c3ccccc3Cl)c2)c(C)cn1 , please. > 99%

###

Listing of entries alongside the reported inhibition at 1.11 µM.
Target Or System: VPS34 (Homo sapiens, UniProt Q8NEB9)
Construct: GST (N); host or cells: SF9 insect cells (baculovirus)
Protocol Summary: Human VPS34 enzyme assay (Adapta TR-FRET)
Assay type: biochemical
Measurement Parameters: 1 h; at a 1.11 μM concentration; read-out: VPS34 Percent Inhibition

Below: 8 compounds and their reported inhibition at 1.11 µM.
INSERT INTO results (compound, measurement) VALUES
  ('O=C(Nc1cc(-n2cc(-c3nc[nH]n3)c(-c3ccccc3Cl)n2)c(F)cn1)C1CC1 [I-56]', '> 99%'),
  ('CC(=O)Nc1cc(-n2cc(-c3ccn[nH]3)c(-c3ccccc3Cl)n2)ccn1 [I-25]', '> 99%'),
  ('COC(=O)Nc1cc(-n2cc(-c3nc[nH]n3)c(-c3ccccc3Cl)c2)c(C)cn1 [I-55]', '> 99%'),
  ('Cc1cnc(NC(=O)OCCF)cc1-n1cc(C(N)=O)c(-c2ccccc2Cl)c1 [I-83]', '> 99%'),
  ('CC(=O)Nc1cc(-n2cc(-c3nc[nH]n3)c(-c3ccccc3Cl)n2)c(C)cn1 [I-5]', '> 99%'),
  ('Cc1cnc(NC(=O)OC2CCCCC2)cc1-n1cc(C(N)=O)c(-c2ccccc2Cl)c1 [I-72]', '71%'),
  ('CC(=O)Nc1cc(-n2cc(C(N)=O)c(-c3cc(CN4CCCC4)ccc3Cl)c2)c(C)cn1 [I-77]', '79%'),
  ('CC(=O)Nc1cc(-n2cc(-c3cccc(N)n3)c(-c3ccccc3Cl)n2)c(C)cn1 [I-107]', '54%');

# get_value(readout='inhibition at 1.11 µM', item= CC(=O)Nc1cc(-n2cc(C(N)=O)c(-c3ccccc3Cl)n2)c(C)cn1 [I-11] ) 96%
